A collection of compounds and their measured IC50 at 72 h
- Protocol text: Cytotoxicity against human BJ cells assessed as reduction in cell viability incubated for 72 hrs by MTS assay
- Type: toxicity, cell-based

Example compounds with recorded IC50 at 72 h:
Compound	Measured
CC1(C)CC[C@]2(C(=O)O)CC[C@]3(C)C(=CC[C@@H]4[C@@]5(C)CCC(=O)C(C)(C)[C@@H]5CC[C@]43C)[C@@H]2C1 [OLEANONIC ACID]	> 50 µM
CC1=CC[C@]2(C(=O)O)CC[C@]3(C)[C@H](CC[C@@H]4[C@@]5(C)CCC(=O)C(C)(C)[C@@H]5CC[C@]43C)[C@H]2[C@@H]1C	35 µM
C=C(C=O)[C@@H]1CC[C@]2(C(=O)OCc3cn([C@H]4O[C@H](COC(C)=O)[C@@H](OC(C)=O)[C@H](OC(C)=O)[C@H]4OC(C)=O)nn3)CC[C@]3(C)[C@H](CC[C@@H]4[C@@]5(C)Cc6nccnc6C(C)(C)[C@@H]5CC[C@]43C)[C@@H]12 (stereo in doubt)	2.3 µM
CC1(C)C=C2[C@H]3CC[C@@H]4[C@@]5(C)Cc6nccnc6C(C)(C)[C@@H]5CC[C@@]4(C)[C@]3(C)CC[C@@]2(C(=O)O)CC1	> 50 µM

// below: IC50 at 72 h requested for another compound
## Input Name the reported IC50 at 72 h value associated with the compound C=C(C)[C@@H]1CC[C@]2(C(=O)O)CC[C@]3(C)[C@H](CC[C@@H]4[C@@]5(C)CCC(=O)C(C)(C)[C@@H]5CC[C@]43C)[C@@H]12 [BETUNOLIC ACID]
## Output 39 µM
